src = patent US10004732B2

biological target: PI 3-kinase gamma (Homo sapiens, UniProt P48736); test: TR-FRET Adapta assay, assay E; assay type: biochemical; settings: read-out: Assay E PI3Kγ IC50
Sequence (P48736 whole entry): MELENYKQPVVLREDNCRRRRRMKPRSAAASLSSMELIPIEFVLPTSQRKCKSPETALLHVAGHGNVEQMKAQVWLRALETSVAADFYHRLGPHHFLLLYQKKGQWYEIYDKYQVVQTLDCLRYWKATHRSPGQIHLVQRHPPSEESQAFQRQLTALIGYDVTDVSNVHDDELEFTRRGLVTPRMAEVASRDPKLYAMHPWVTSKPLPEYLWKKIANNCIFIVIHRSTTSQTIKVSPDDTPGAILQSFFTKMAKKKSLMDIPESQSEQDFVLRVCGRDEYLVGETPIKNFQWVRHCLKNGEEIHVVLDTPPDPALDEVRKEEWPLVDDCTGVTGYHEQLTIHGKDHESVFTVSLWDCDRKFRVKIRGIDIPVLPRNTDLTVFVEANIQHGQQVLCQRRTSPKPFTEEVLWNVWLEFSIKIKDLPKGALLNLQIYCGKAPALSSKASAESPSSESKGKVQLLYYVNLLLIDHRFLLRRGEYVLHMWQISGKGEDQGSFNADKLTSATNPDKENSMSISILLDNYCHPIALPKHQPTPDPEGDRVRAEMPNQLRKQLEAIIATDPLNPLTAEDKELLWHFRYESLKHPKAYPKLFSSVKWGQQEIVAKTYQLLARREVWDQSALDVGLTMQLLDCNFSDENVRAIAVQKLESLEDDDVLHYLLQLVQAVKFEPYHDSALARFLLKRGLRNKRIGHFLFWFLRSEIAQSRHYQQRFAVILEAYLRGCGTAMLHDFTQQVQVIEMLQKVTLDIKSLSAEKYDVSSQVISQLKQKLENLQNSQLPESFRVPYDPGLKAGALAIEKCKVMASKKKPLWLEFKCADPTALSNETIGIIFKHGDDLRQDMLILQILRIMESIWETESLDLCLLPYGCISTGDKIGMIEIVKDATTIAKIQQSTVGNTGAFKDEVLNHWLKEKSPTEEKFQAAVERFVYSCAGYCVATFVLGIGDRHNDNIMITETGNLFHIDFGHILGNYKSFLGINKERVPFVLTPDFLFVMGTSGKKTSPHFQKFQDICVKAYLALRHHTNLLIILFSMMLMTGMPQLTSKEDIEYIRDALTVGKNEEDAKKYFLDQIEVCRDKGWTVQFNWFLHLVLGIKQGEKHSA
measured property: IC50 (nM)
Write it as a number; the unit nM goes unstated.

{"chemical structure": "Cc1cncc(-c2nc(-c3cc(S(=O)(=O)NCCC(C)(C)O)ccc3C)cnc2N)c1", "assay result": 278}
{"chemical structure": "Cc1ccc(S(=O)(=O)NOCC(C)(C)O)cc1-c1cnc(N)c(-c2cn(C)nc2C)n1", "assay result": 100}
{"chemical structure": "Cc1ccc(S(=O)(=O)NCCCF)cc1-c1cnc(N)c(-n2cncn2)n1", "assay result": 124}

q: // map Cc1ccc(S(=O)(=O)N2CCCC(F)(F)C2)cc1-c1cnc(N)c(-n2cncn2)n1 to recorded IC50 (system: PI 3-kinase gamma (Homo sapiens, UniProt P48736))
a: 11

* * *

target: PI 3-kinase beta (Homo sapiens, UniProt P42338); assay: Cellular assay I1, p-Akt (S473) in Rat-1 cells, Surefire format; type: cell-based; settings: non-asterisked data: version I1 (Surefire format), Rat-1 cells; read-out: Assay I PI3Kβ IC50
Sequence (P42338 whole entry): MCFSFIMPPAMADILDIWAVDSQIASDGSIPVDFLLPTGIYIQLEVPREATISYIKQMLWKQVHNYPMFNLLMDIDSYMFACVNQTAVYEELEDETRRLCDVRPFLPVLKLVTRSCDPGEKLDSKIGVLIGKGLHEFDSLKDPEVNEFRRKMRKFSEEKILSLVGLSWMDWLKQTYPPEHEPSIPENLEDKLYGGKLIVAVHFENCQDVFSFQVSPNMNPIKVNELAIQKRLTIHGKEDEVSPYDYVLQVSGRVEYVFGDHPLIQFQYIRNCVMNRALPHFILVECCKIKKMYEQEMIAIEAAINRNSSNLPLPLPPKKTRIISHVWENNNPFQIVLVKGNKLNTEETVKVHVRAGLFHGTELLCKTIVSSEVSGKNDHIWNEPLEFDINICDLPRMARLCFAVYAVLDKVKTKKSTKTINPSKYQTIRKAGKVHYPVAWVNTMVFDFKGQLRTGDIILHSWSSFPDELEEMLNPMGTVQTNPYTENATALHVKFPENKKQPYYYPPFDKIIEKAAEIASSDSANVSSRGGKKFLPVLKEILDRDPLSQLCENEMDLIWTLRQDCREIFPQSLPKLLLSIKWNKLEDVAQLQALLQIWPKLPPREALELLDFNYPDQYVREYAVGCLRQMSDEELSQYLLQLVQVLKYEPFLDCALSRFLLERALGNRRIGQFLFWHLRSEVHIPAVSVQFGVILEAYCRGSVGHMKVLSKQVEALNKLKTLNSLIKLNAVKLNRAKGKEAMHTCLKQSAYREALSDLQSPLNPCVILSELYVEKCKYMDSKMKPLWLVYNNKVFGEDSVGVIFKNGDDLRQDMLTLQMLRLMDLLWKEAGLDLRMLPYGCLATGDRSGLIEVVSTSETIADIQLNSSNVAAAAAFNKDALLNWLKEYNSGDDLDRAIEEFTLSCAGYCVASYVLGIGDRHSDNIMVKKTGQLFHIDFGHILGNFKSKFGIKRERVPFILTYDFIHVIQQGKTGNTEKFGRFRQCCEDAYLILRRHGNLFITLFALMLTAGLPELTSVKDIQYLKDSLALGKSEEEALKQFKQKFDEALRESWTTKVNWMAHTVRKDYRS
Sequence (Q63787 whole entry partner): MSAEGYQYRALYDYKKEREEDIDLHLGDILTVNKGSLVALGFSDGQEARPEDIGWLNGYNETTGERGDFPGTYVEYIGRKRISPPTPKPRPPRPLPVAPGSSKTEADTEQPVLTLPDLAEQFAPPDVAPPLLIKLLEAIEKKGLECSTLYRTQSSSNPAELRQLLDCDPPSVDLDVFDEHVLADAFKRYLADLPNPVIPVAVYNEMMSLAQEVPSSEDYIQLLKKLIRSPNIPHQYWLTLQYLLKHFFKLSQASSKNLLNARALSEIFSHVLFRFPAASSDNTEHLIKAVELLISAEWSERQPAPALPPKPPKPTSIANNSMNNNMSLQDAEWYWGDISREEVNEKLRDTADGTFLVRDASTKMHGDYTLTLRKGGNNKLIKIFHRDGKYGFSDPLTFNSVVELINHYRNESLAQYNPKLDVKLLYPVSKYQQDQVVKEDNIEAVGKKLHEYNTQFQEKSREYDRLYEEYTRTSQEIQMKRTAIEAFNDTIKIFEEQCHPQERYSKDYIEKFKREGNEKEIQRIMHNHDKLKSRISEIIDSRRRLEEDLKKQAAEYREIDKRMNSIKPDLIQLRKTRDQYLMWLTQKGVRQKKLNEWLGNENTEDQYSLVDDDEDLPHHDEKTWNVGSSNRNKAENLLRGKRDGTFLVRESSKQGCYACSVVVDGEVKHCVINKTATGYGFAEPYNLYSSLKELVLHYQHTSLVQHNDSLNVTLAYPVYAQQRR
Recorded measurements of pIC50, one per entry
The read-out pIC50 is expressed as -log10 of concentration in moles per litre.

Sample answers from the record:
{"molecule": "CCOc1ccc(-c2nc(-c3cc(S(=O)(=O)NCCC(C)(C)O)ccc3C)cnc2N)cn1 [Example 119.13]", "pIC50": 5.17}
{"molecule": "COc1ccc(-c2nc(-c3cc(S(=O)(=O)NCCC(C)(C)O)ccc3C)cnc2N)c(C)n1 [Example 119.14]", "pIC50": 5.36}

In the following, a different molecule is considered.
q: Reported pIC50 for Cc1ccc(S(=O)(=O)NCCC(C)(C)O)cc1-c1cnc(N)c(-c2ccc(OC3CCOCC3)nc2)n1 [Example 119.24] : what is it?
a: 5.04

* * *

biological target: Vps34 (Homo sapiens, UniProt Q8NEB9); test: Kinase Glo Luminescent Kinase Assay (Kglo), assay C; format: biochemical; conditions: read-out: Assay C VPS34 IC50
Sequence (Q8NEB9 whole entry, species assumed): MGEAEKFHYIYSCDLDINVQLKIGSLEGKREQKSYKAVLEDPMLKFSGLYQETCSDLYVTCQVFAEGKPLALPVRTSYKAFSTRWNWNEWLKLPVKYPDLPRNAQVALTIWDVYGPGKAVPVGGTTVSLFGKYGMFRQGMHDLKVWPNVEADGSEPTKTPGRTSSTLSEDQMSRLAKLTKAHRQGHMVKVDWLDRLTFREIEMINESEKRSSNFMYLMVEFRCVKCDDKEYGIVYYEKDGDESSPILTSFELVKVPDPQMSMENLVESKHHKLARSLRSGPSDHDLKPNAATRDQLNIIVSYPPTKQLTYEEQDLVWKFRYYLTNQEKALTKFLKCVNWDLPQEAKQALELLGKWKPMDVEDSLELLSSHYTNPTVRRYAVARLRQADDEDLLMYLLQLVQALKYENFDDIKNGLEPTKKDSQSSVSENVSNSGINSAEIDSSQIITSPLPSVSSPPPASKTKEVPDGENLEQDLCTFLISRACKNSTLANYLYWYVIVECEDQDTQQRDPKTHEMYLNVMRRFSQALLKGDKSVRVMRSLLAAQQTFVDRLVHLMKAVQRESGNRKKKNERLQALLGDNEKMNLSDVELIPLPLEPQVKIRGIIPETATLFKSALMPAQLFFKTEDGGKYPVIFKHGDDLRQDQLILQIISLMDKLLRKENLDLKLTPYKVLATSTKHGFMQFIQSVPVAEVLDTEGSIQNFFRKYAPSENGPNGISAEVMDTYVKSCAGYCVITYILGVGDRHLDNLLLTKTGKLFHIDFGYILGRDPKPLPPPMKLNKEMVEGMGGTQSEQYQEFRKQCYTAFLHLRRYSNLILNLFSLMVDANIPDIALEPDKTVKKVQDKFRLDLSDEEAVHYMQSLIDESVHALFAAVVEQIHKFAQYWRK
pIC50: −log10 of the molar value.
measured property: pIC50

Sample answers from the record:
{"compound": "Cc1ncc(-c2nc(-c3cc(S(=O)(=O)N4CC(CO)C4)ccc3C)cnc2N)s1", "pIC50": 5.70}
{"compound": "Cc1cc(-c2nc(-c3cc(S(=O)(=O)NCC4(O)CCCCC4)ccc3C)cnc2N)ccn1", "pIC50": "< 5.04"}
{"compound": "Cc1ccc(S(=O)(=O)NCCC(C)(C)O)cc1-c1cnc(N)c(-c2nc(C3CC3)no2)n1", "pIC50": "< 5.04"}

q: Reported pIC50 for Cc1ccc(S(=O)(=O)NCC2(CO)COC2)cc1-c1cnc(N)c(-c2cn(C)nc2C)n1 : what is it?
a: < 5.00

q: Same question for Cc1ccc(S(=O)(=O)N[C@H]2C[C@@H](O)C2)cc1-c1cnc(N)c(-n2cncn2)n1 [Example 71b] please.
a: < 5.00

q: Same question for Cc1ccc(S(=O)(=O)NCC2(C)COC2)cc1-c1cnc(N)c(-c2cnn(C)c2)n1 please.
a: < 5.00

* * *

target: mTOR (Homo sapiens, UniProt P42345); experiment: Lanthascreen kinase binding assay, assay G; details: Assay G mTOR IC50 (μM)
measured property: IC50 (µM)
Write it as a number; the unit µM goes unstated.

q: Reported IC50 for Cc1ccc(S(=O)(=O)NC2CCOCC2)cc1-c1cnc(N)c(-n2cncn2)n1 : what is it?
a: 8.75
